System: Vero cells
Type: cell-based
COND: 48 h
Square brackets hold non-standard residues; d marks the D form. Peptide text beside a SMILES is read from it. * marks the point of attachment. Boc = CC(C)(C)OC(=O)*; OBn = c1ccc(CO*)cc1
PROPERTY NAME: CC50

# MOLECULE, PROPERTY NAME, RESULT VALUE
measured = [
    ("CC(C)[C@H](NC(=O)[C@@H](N)Cc1ccccc1)C(=O)N[C@@H](Cc1ccccc1)C(=O)OCc1ccccc1 [P8L] (H-Phe-Val-Phe-OBn)", "CC50", "> 50 µM"),
    ("CC(C)[C@H](NC(=O)[C@H](Cc1ccccc1)NC(=O)CCC(=O)OCc1ccccc1)C(=O)N[C@@H](Cc1ccccc1)C(=O)OCc1ccccc1", "CC50", "> 50 µM"),
    ("CC(C)[C@@H](NC(=O)[C@@H](Cc1ccccc1)NC(=O)OC(C)(C)C)C(=O)N[C@H](Cc1ccccc1)C(=O)OCc1ccccc1 [P6D] (Boc-[dF]-[dV]-[dF]-OBn)", "CC50", "3.2 µM"),
    ("CC(C)[C@H](NC(=O)[C@H](Cc1ccccc1)NC(=O)OC(C)(C)C)C(=O)N[C@@H](Cc1ccccc1)C(=O)OCc1ccccc1 [P6L] (Boc-Phe-Val-Phe-OBn)", "CC50", "> 50 µM"),
    ("CCc1ccc(NC(=O)[C@@H](Cc2ccccc2)NC(=O)[C@H](NC(=O)[C@@H](Cc2ccccc2)NC(=O)OC(C)(C)C)C(C)C)cc1 [P21D]", "CC50", "> 50 µM"),
    ("CC(C)[C@@H](NC(=O)[C@H](N)Cc1ccccc1)C(=O)N[C@H](Cc1ccccc1)C(=O)OCc1ccccc1 [P8D] (H-[dF]-[dV]-[dF]-OBn)", "CC50", "> 50 µM"),
]
